Kindly state MIC for each of the entries shown.
Test system: Streptococcus pneumoniae
Experiment: Minimum inhibitory concentration against Streptococcus pneumoniae ATCC 6303 (erythromycin-susceptible strain)
Format: functional

Please review the following examples before continuing.
| SMILES | MIC |
| --- | --- |
| CC[C@H]1OC(=O)[C@H](C)C(=O)[C@H](C)[C@@H](O[C@@H]2O[C@H](C)C[C@H](N(C)C)[C@H]2O)[C@@](C)(OCC#Cc2ccc(-c3cccs3)cc2)C[C@@H](C)C2=NCCN3C(=O)O[C@@]1(C)[C@H]3[C@H]2C | ≤ 0.008 µg/mL |
| CC[C@H]1OC(=O)[C@@](C)(F)C(=O)[C@H](C)[C@@H](O[C@@H]2O[C@H](C)C[C@H](N(C)C)[C@H]2O)[C@@](C)(OCC#Cc2ccc(-c3nnn(C)n3)s2)C[C@@H](C)C2=NCCN3C(=O)O[C@@]1(C)[C@H]3[C@H]2C | ≤ 0.008 µg/mL |
| CC[C@H]1OC(=O)[C@H](C)C(=O)[C@H](C)[C@@H](O[C@@H]2O[C@H](C)C[C@H](N(C)C)[C@H]2O)[C@@](C)(OCC#Cc2cccnc2)C[C@@H](C)C2=NCCN3C(=O)O[C@@]1(C)[C@H]3[C@H]2C | 0.03 µg/mL |
| CC[C@H]1OC(=O)[C@H](C)C(=O)[C@H](C)[C@@H](O[C@@H]2O[C@H](C)C[C@H](N(C)C)[C@H]2O)[C@](C)(OCC=Cc2cnc3ccccc3c2)C[C@@H](C)C(=O)[C@H](C)[C@H]2NC(=O)O[C@@]21C | 0.03 µg/mL |
| CC[C@H]1OC(=O)[C@H](C)C(=O)[C@H](C)[C@@H](O[C@@H]2O[C@H](C)C[C@H](N(C)C)[C@H]2O)[C@@](C)(OCC#Cc2cnc3ccccc3c2)C[C@@H](C)C2=NCCN3C(=O)O[C@@]1(C)[C@H]3[C@H]2C | ≤ 0.004 µg/mL |

Dear colleague, could you please provide MIC for the compounds listed below?
1. CC[C@H]1OC(=O)[C@H](C)C(=O)[C@H](C)[C@@H](O[C@@H]2O[C@H](C)C[C@H](N(C)C)[C@H]2O)[C@@](C)(OCC#Cc2ccc(-c3ccccn3)cc2)C[C@@H](C)C2=NCCN3C(=O)O[C@@]1(C)[C@H]3[C@H]2C
2. CC[C@H]1OC(=O)[C@H](C)C(=O)[C@H](C)[C@@H](O[C@@H]2O[C@H](C)C[C@H](N(C)C)[C@H]2O)[C@@](C)(OCC#Cc2ccc(-c3nnn(C)n3)s2)C[C@@H](C)C2=NCCN3C(=O)O[C@@]1(C)[C@H]3[C@H]2C
3. CC[C@H]1OC(=O)[C@H](C)C(=O)[C@H](C)[C@@H](O[C@@H]2O[C@H](C)C[C@H](N(C)C)[C@H]2O)[C@@](C)(OC)C[C@@H](C)C2=NCCN3C(=O)O[C@@]1(C)[C@H]3[C@H]2C
4. CC[C@H]1OC(=O)[C@@](C)(F)C(=O)[C@H](C)[C@@H](O[C@@H]2O[C@H](C)C[C@H](N(C)C)[C@H]2O)[C@@](C)(OCC#Cc2cnc3c(F)cccc3c2)C[C@@H](C)C2=NCCN3C(=O)O[C@@]1(C)[C@H]3[C@H]2C
5. CC[C@H]1OC(=O)[C@H](C)C(=O)[C@H](C)[C@@H](O[C@@H]2O[C@H](C)C[C@H](N(C)C)[C@H]2O)[C@@](C)(OCC#CCCc2ccc(-c3cccs3)cc2)C[C@@H](C)C2=NCCN3C(=O)O[C@@]1(C)[C@H]3[C@H]2C
6. CC[C@H]1OC(=O)[C@H](C)C(=O)[C@H](C)[C@@H](O[C@@H]2O[C@H](C)C[C@H](N(C)C)[C@H]2O)[C@@](C)(OCC#CCCc2ccc(-c3ccccn3)cc2)C[C@@H](C)C2=NCCN3C(=O)O[C@@]1(C)[C@H]3[C@H]2C

Ans:
1: ≤ 0.008 µg/mL; 2: ≤ 0.008 µg/mL; 3: 0.06 µg/mL; 4: ≤ 0.008 µg/mL; 5: 0.015 µg/mL; 6: ≤ 0.008 µg/mL

Dear colleague, could you please provide MIC for the compounds listed below?
1. CC[C@H]1OC(=O)[C@H](C)C(=O)[C@H](C)[C@@H](O[C@@H]2O[C@H](C)C[C@H](N(C)C)[C@H]2O)[C@@](C)(OCC#Cc2cnc3c(OC)cccc3c2)C[C@@H](C)C2=NCCN3C(=O)O[C@@]1(C)[C@H]3[C@H]2C
2. CC[C@H]1OC(=O)[C@H](C)C(=O)[C@H](C)[C@@H](O[C@@H]2O[C@H](C)C[C@H](N(C)C)[C@H]2O)[C@@](C)(OCC#Cc2ccccc2)C[C@@H](C)C2=NCCN3C(=O)O[C@@]1(C)[C@H]3[C@H]2C

Ans:
1: ≤ 0.008 µg/mL; 2: 0.03 µg/mL

###

Kindly state MIC for each of the entries shown.
System: Staphylococcus aureus
Test: Minimum inhibitory concentration against Staphylococcus aureus 6538P (erythromycin-susceptible strain)
Type: functional
Give your result as the value with the unit written after it.

Please review the following examples before continuing.
| SMILES | MIC |
| --- | --- |
| CC[C@H]1OC(=O)[C@H](C)C(=O)[C@H](C)[C@@H](O[C@@H]2O[C@H](C)C[C@H](N(C)C)[C@H]2O)[C@@](C)(OCC#Cc2ccccc2)C[C@@H](C)C2=NCCN3C(=O)O[C@@]1(C)[C@H]3[C@H]2C | 0.2 µg/mL |
| CC[C@H]1OC(=O)[C@@](C)(F)C(=O)[C@H](C)[C@@H](O[C@@H]2O[C@H](C)C[C@H](N(C)C)[C@H]2O)[C@@](C)(OCC#Cc2cnc3c(F)cccc3c2)C[C@@H](C)C2=NCCN3C(=O)O[C@@]1(C)[C@H]3[C@H]2C | 0.25 µg/mL |
| CC[C@H]1OC(=O)[C@H](C)C(=O)[C@H](C)[C@@H](O[C@@H]2O[C@H](C)C[C@H](N(C)C)[C@H]2O)[C@@](C)(OCC#Cc2cnc3ccccc3c2)C[C@@H](C)C2=NCCN3C(=O)O[C@@]1(C)[C@H]3[C@H]2C | 0.1 µg/mL |
| CC[C@H]1OC(=O)[C@H](C)C(=O)[C@H](C)[C@@H](O[C@@H]2O[C@H](C)C[C@H](N(C)C)[C@H]2O)[C@@](C)(OC)C[C@@H](C)C2=NCCN3C(=O)O[C@@]1(C)[C@H]3[C@H]2C | 0.1 µg/mL |
| CC[C@H]1OC(=O)[C@H](C)C(=O)[C@H](C)[C@@H](O[C@@H]2O[C@H](C)C[C@H](N(C)C)[C@H]2O)[C@@](C)(OCC#Cc2ccc(-c3cccs3)cc2)C[C@@H](C)C2=NCCN3C(=O)O[C@@]1(C)[C@H]3[C@H]2C | 0.5 µg/mL |

Dear colleague, could you please provide MIC for the molecules listed below?
1. CC[C@H]1OC(=O)[C@H](C)C(=O)[C@H](C)[C@@H](O[C@@H]2O[C@H](C)C[C@H](N(C)C)[C@H]2O)[C@@](C)(OCC#Cc2cnc3c(OC)cccc3c2)C[C@@H](C)C2=NCCN3C(=O)O[C@@]1(C)[C@H]3[C@H]2C
2. CC[C@H]1OC(=O)[C@H](C)C(=O)[C@H](C)[C@@H](O[C@@H]2O[C@H](C)C[C@H](N(C)C)[C@H]2O)[C@@](C)(OCC#Cc2ccc(-c3ccccn3)cc2)C[C@@H](C)C2=NCCN3C(=O)O[C@@]1(C)[C@H]3[C@H]2C
3. CC[C@H]1OC(=O)[C@@](C)(F)C(=O)[C@H](C)[C@@H](O[C@@H]2O[C@H](C)C[C@H](N(C)C)[C@H]2O)[C@@](C)(OCC#Cc2ccc(-c3nnn(C)n3)s2)C[C@@H](C)C2=NCCN3C(=O)O[C@@]1(C)[C@H]3[C@H]2C
4. CC[C@H]1OC(=O)[C@H](C)C(=O)[C@H](C)[C@@H](O[C@@H]2O[C@H](C)C[C@H](N(C)C)[C@H]2O)[C@@](C)(OCC#Cc2cccnc2)C[C@@H](C)C2=NCCN3C(=O)O[C@@]1(C)[C@H]3[C@H]2C
5. CC[C@H]1OC(=O)[C@H](C)C(=O)[C@H](C)[C@@H](O[C@@H]2O[C@H](C)C[C@H](N(C)C)[C@H]2O)[C@@](C)(OCC#CCCc2ccc(-c3ccccn3)cc2)C[C@@H](C)C2=NCCN3C(=O)O[C@@]1(C)[C@H]3[C@H]2C

Ans:
0.25 µg/mL
0.25 µg/mL
0.5 µg/mL
0.2 µg/mL
0.25 µg/mL
